Reference source for all entries: PubChem BioAssay (NCATS)

- ASSAY_DETAILS: Primary fluorescence-based thiol-reactive (MSTI) qHTS assay for identification of artifact compounds. (AID 1845221); note: nearly all actives have a fitted effect of over 65% in size
- RUN_PARAMETERS: MSTI thiol-reactivity probe, 1 h; series mostly up to 53.8 µM
Inconclusive results are not listed. Activity calls are given as the source filed them. Calls come from the whole dose curve; as a rule, active = well fitted inhibition curve with a large enough effect; inconclusive = small, poorly fitted or top-dose-only effect; inactive = no such curve, though single readings can be large or run the other way.
Labels: 1 (active), 0 (inactive)

1. Cn1nccc1-c1ccccc1Oc1ccc(S(=O)(=O)Nc2nccs2)cc1C#N :: 0
2. CC1CCC2(C)CCC3(C)C(=CCC4C5(C)CCC(O)C(C)(C(=O)O)C5CCC43C)C2C1C (stereo not given) :: 0
3. COc1cccc(Cn2ncc3c4sc(S(C)=O)cc4n(C)c3c2=O)c1 (stereo not given) :: 0
4. CC1=CCC[C@@H]2[C@](CCc3ccoc3)(C(=O)O)[C@H](C)CC[C@@]12C :: 0
5. C=CC(C)(O)CC/C=C(\C)C(=O)O[C@@H]1[C@@H](O)[C@H](OC(C)(C=C)CC/C=C(\C)C(=O)O)O[C@H](CO)[C@H]1OC(=O)/C(C)=C/CCC(C)(O)C=C (stereo not given in full) :: 0
6. C=C(COC(=O)CC(C)C)C1Cc2cc(C(C)=O)ccc2O1 (stereo not given) :: 0
7. CC1CCC2(C(=O)O)CCC3(C)C(=CCC4C5(C)C[C@@H](O)[C@@H](O)C(C)(CO)C5CCC43C)C2C1(C)O (stereo not given in full) :: 0
8. Cc1sc(C)c(C(=O)NC2(c3ccc(C(=O)O)cc3)CC2)c1Cc1ccc(C(F)(F)F)cc1 :: 0
9. C=C1C2CCC3CC2(CC(O)C2(O)C1CC(OC1OC(CO)C(O)C(O)C1O)C2(C)C)CC3(C)O (stereo not given) :: 1
10. CC1(C)CC[C@]2(C(=O)O)[C@H](O)C[C@]3(C)C(=CCC4[C@@]5(C)CC[C@H](O[C@@H]6OC[C@@H](O)[C@H](O)[C@H]6O)[C@@](C)(C(=O)O)C5CC[C@]43C)[C@@H]2C1 (stereo not given in full) :: 0
11. COc1cc(O)cc(C)c1C(=O)OC1C(CO)OC(n2ccc(=O)[nH]c2=O)C1OC(C)=O (stereo not given) :: 1
12. COc1cc2nc(=NC(=O)c3cccnc3)n3c(c2cc1OC)NCC3 :: 0
13. Cc1ccccc1N1CCN(S(=O)(=O)C[C@]23CC[C@H](C[C@@H]2NC(=O)[C@@H](N)CCS(C)(=O)=O)C3(C)C)CC1 :: 0
14. C/C=C/C=C/C1=C2C(=O)C3(C)C4C(C(=O)CC(O)/C=C/C)=C(O1)C1(C)C2C2(C)OC1(O)C4(C)OC23O (stereo not given) :: 1
15. CC(C)c1ccc2c(c1)CCC1[C@](C)(C(=O)O)CCC[C@]21C (stereo not given in full) :: 0
16. C=C1CC[C@@H]2[C@](C)(CO)[C@H](O[C@@H]3O[C@H](CO)[C@@H](O)[C@H](O)[C@H]3O)CC[C@@]2(C)[C@@H]1C/C=C1/C(=O)OC[C@H]1O :: 1
17. C=C1C(O)CC2C(C(=O)O)=COC(O[C@@H]3O[C@H](COC(=O)c4ccc(O)cc4)[C@@H](O)[C@H](O)[C@H]3O)C12 (stereo not given in full) :: 1
18. c1cc(-c2cc(C3CCNCC3)[nH]n2)ccn1 :: 0
19. C/C1=C\CC(C)(C)/C=C/C/C(C(=O)O)=C/CC1 :: 0
20. C/C=C(/C)C(=O)OC1C2OC2C2(CO2)C2C3OC(=O)C(C)C3CCC12C (stereo not given) :: 0
21. Cc1cn(-c2cc(NC(=O)c3ccc(C)c(Nc4nccc(-c5cnccn5)n4)c3)cc(C(F)(F)F)c2)cn1 :: 0
22. C=C1CCC2[C@@](C)(C(=O)O)CCC[C@@]2(C)[C@@H]1CCc1ccoc1 (stereo not given in full) :: 0
23. CC1=C2C(=O)C=C(CO)C2C2OC(=O)C(CS(=O)(=O)O)C2C(OC(=O)Cc2ccc(O)cc2)C1 (stereo not given) :: 1
24. CC1=C2CC(O)(C(C)(C)O)C(O[C@@H]3O[C@H](CO)[C@@H](O)[C@H](O)[C@H]3O)CC(C)C2CC1=O (stereo not given in full) :: 1
25. C=C1C(OC(C)=O)CCC2(C)CCC(C(C)(C)O)CC12 (stereo not given) :: 0
26. CCNC(=O)C1CC(F)(c2ccc(CN3CCCC3)c(F)c2)C1 (stereo not given) :: 0
27. CC1C2=CC(=O)OC2(O)CC2C1C(O)CC1C(C)(CO)CCCC21C (stereo not given) :: 0
28. COc1cc(O)cc2c1C(=O)OC(C)C2 (stereo not given) :: 0
29. CCN=C1N[C@@H]2[C@@H](O)[C@H](O)[C@@H](CO)O[C@@H]2S1 :: 0
30. OCC(O)C(c1c[nH]c2ccccc12)c1c[nH]c2ccccc12 (stereo not given) :: 1

----------
- ASSAY_DETAILS: Primary fluorescence-based thiol-reactive (MSTI) qHTS assay for identification of artifact compounds. (AID 1845221); note: nearly all actives have a fitted effect of over 65% in size
- RUN_PARAMETERS: MSTI thiol-reactivity probe, 1 h; series mostly up to 53.8 µM
Inconclusive results are not listed. Calls of active or inactive are those of the source. Calls come from the whole dose curve; as a rule, active = well fitted inhibition curve with a large enough effect; inconclusive = small, poorly fitted or top-dose-only effect; inactive = no such curve, though single readings can be large or run the other way.
Possible outcomes: Y = active, N = inactive

1) CC1CC2OCC3(O)CCC(O)C(C14CC(c1ccoc1)OC4=O)C23CO (stereo unspecified) :: Y
2) CC1(C)C=Cc2c(ccc3c2N=C2C(C)(C)[C@@H]4C[C@]56CCCN5C(=O)[C@@]4(C[C@]23O)NC6=O)O1 :: N
3) CCC(C)C(C(=O)O)N1Cc2c(OCC=C(C)C)c(C)c(OC)c(C(=O)O)c2C1=O (stereo unspecified) :: N
4) COC(=O)C1=CO[C@@H](O[C@@H]2O[C@H](CO)[C@@H](O)[C@H](O)[C@H]2O)[C@@H]2[C@@H](C)[C@@H](O)C(O)[C@H]12 (stereo partly specified) :: N
5) CC1(C(=O)O)CCCC2(C)C3CCC4CC3(CCC12)CC4C(=O)O (stereo unspecified) :: N
6) C[C@@H]1C(=O)O[C@H](C)[C@H]1C[C@@H](O)[C@](C)(O)[C@H]1CC[C@@]2(O)C3=CC(=O)[C@@H]4C[C@@H](O)[C@@H](O)C[C@]4(C)C3CC[C@]12C (stereo partly specified) :: N
7) CNc1nc(C)nc(N[C@H]2CCC[C@@H](C(=O)NCc3ccc(C#N)cc3C(F)(F)F)C2)n1 :: N
8) NC1=NC2(c3cc(NC(=O)c4ccc(F)cn4)ccc3F)COCC2CS1 (stereo unspecified) :: N
9) CC(NC(=O)[C@H](Cc1ccccc1)NC(=O)OCc1ccccc1)C(=O)CF (stereo partly specified) :: N
10) CCCNCCOc1ccc(NC(=O)c2c[nH]c3c2C(=O)CCC3)cc1F :: N
11) CCC(C)C(=O)OC[C@H]1O[C@H](O[C@H]2O[C@H](CO)[C@@H](O)[C@H](O)[C@H]2O)[C@H](O)[C@@H](O)[C@@H]1O (stereo partly specified) :: N
12) C=C1CC[C@H]2[C@@](C)(CCC(O)[C@@]2(C)CO)[C@@H]1/C=C/C(=C\C(=O)O)C(=O)O (stereo partly specified) :: Y
13) CCCN1CCC[C@@H](c2cccc(S(C)(=O)=O)c2)C1 :: N
14) O=C(OCC1OC(Oc2ccc(O)cc2COC(=O)C2(O)C(O)CCC(=O)C2OC(=O)C2C=CCC2)C(OC(=O)C2C=CCC2)C(O)C1O)C1C=CCC1 (stereo unspecified) :: N
15) O=C(N[C@@H]1CC[C@@H](c2cccc(F)c2F)CN(CC(F)(F)F)C1=O)N1CCC(n2c(=O)[nH]c3ncccc32)CC1 :: N
16) C=C1C(=O)O[C@@H]2/C=C(\C)CC/C=C(\C(=O)O[C@@H]3O[C@H](CO)[C@@H](O)[C@H](O)[C@H]3O)CC[C@@H]12 :: Y
17) OC[C@@]1(O)CO[C@@H](OC[C@H]2O[C@@H](OCc3ccccc3)[C@H](O)[C@@H](O)[C@@H]2O)[C@@H]1O :: N
18) O=C(NC1CCN(CC(F)(F)F)CC1)c1ccc(-c2cccc(F)c2)nc1 :: N
19) Fc1ccc(-c2c3cccc(C(F)(F)F)c3nn2Cc2ccc(F)cc2Cl)cc1 :: N
20) CCC(C)C(=O)O[C@H]1[C@@H](O[C@H]2O[C@H](CO)[C@@H](O)[C@H](O)[C@H]2O)O[C@H](CO)[C@@H](O)[C@@H]1O (stereo partly specified) :: N
21) CC(=O)OC1CC(C(C)(C)O)OC2CCC3(C)OC4=C(C(=O)C=C5C(C)C(OC(C)=O)C6(C)C(C)OC546)C(O)C3C12C (stereo unspecified) :: N
22) OC[C@@]1(O)CO[C@H](OC[C@H]2O[C@@H](OC(CCCCc3ccc(O)cc3)CCc3ccc(O)cc3)[C@H](O)[C@@H](O)[C@@H]2O)[C@@H]1O (stereo partly specified) :: N
23) CC(C)(OC1OC(CO)C(O)C(O)C1O)C1CCC(O)(CO)C2CC(=O)C(C)(O)C2C1 (stereo unspecified) :: N
24) O=C(/C=C/N1C[C@@H]2C[C@@H]1CN2c1ccccn1)c1ccccc1O :: N
25) O=C(O[C@@H]1O[C@H](CO)[C@@H](O)[C@H](O)[C@H]1O)c1ccccc1 :: Y
26) Nc1ncnc2c1ncn2[C@H]1O[C@@H](C(=O)N2CCN(CC(=O)Nc3cccc4c3CNC4=O)CC2)[C@H](O)[C@@H]1O :: N
27) CC(C)CC(c1c(O)c(C=O)c(O)c(C=O)c1O)C1CCC(C)(O)C2CC(C(C)(C)O)CCC12C (stereo unspecified) :: Y
28) O=C(O)c1ccc(NC(=O)[C@H](CC2CCCC2)n2cnc(C(F)(F)F)c2)nc1 :: N
29) COC(=O)C[C@H]1C(C)(C)[C@H](OC(=O)C(C)C)C2CC3=C4CC(=O)O[C@@H](c5ccoc5)[C@]4(C)CCC3[C@@]1(C)C2=O (stereo partly specified) :: N
30) O=C1C[C@@]2(C(=O)N1)C(=O)N(Cc1ccc(Br)cc1F)C(=O)c1cccn12 :: N
31) CC1CCCCCCCc2cc(O)cc(O)c2C(=O)O1 (stereo unspecified) :: Y
